- Assay Name: Stat Signaling Pathway (AID 446);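 further: ME-180 cervical cancer cells given 40 pM IL-6 alongside compound; SIE-controlled beta-lactamase reporter measured as 460/530 nm FRET emission ratio; on the % scale 0 is the no-effect control and ±100 the full control effect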
- Condition Parameters: ME-180 (cervical carcinoma) SIE beta-lactamase reporter, IL-6 stimulated, 5 h; at 7.69 µM (top of the series) unless noted
Results filed as inconclusive are left out.
Property: activity, negative = inhibition (%)
// note: answer is a bare numeric in %

>>> reading("O=C(Nc1cccc(F)c1)N1CCC2(CC1)CCN(C(=O)c1ccncc1)CC2")
-7.63

From here, focus on the item given below.
Return activity, negative = inhibition for the following molecule: CN(C)c1ccc(-c2cncnc2-n2ccnc2)cc1
10.2

* * *

- Tested on: P93_24
- Assay Name: qHTS profiling for inhibitors of Plasmodium falciparum proliferation (AID 504749);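 further: 0% = DMSO vehicle and full inhibition = artemisinin control; nearly all actives have a fitted effect of over 60% in size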
- Condition Parameters: P. falciparum in erythrocytes, SYBR Green DNA, 72 h; series mostly up to 12.8 µM
Inconclusive results are not listed. Active and inactive are the calls of the source. Calls come from the whole dose curve; as a rule, active = well fitted inhibition curve with a large enough effect; inconclusive = small, poorly fitted or top-dose-only effect; inactive = flat fitted curve, though single readings scatter.
Property: outcome

>>> reading("COc1c(O)cc2c(c1O)[C@@H]1O[C@@H](CO)[C@@H](O)[C@@H](O)[C@@H]1OC2=O")
"inactive"
>>> reading("CN[C@@H](CC(C)C)C(=O)N[C@@H]1C(=O)N[C@H](CC(N)=O)C(=O)N[C@@H]2C(=O)N[C@H]3C(=O)N[C@H](C(=O)N[C@H](C(=O)O)c4cc(O)cc(O)c4-c4cc3ccc4O)[C@H](O)c3ccc(c(Cl)c3)Oc3cc2cc(c3O[C@H]2O[C@@H](CO)[C@@H](O)[C@@H](O)[C@@H]2O[C@@H]2C[C@](C)(N)[C@H](O)[C@H](C)O2)Oc2ccc(cc2Cl)[C@@H]1O")
"inactive"
>>> reading("CC(=O)Nc1c(I)c(C(=O)N[C@H]2[C@@H](O)[C@H](O)[C@H](CO)O[C@@H]2O)c(I)c(N(C)C(C)=O)c1I")
"inactive"
